measurementTarget: HIV-1 protease (Human immunodeficiency virus type 1 group M subtype B)
Construct: made in house; host or cells: E. coli BL21 (dE3)pLysS, pET30a vector
experiment: HIV-1 Protease Inhibition Assay
Type: biochemical
recordedConditions: fluorogenic substrate assay
reportedProperty: IC50

molecule | measurementTarget | reading
O=C(N[C@@H](Cc1ccccc1)[C@H](O)CN1CCCC/C=C/CCCC(O)c2cccc(c2)S1(=O)=O)OCc1cccnc1 (stereo partly drawn) | HIV-1 protease (Human immunodeficiency virus type 1 group M subtype B) | 34 nM
CC(C)CN(C[C@@H](O)[C@H](Cc1ccccc1)NC(=O)OC(C)(C)C)S(=O)(=O)c1cncc(N)c1 | HIV-1 protease (Human immunodeficiency virus type 1 group M subtype B) | 33 nM
CC(C)CN(C[C@H](O)C(Cc1ccccc1)NC(=O)O[C@@H]1C[C@@H]2CCO[C@@H]2C1)S(=O)(=O)c1ccc(CO)cc1 (stereo partly drawn) | HIV-1 protease (Human immunodeficiency virus type 1 group M subtype B) | 1 nM
CC(C)CN(C[C@@H](O)[C@H](Cc1ccccc1)NC(=O)OC1CC2CCO[C@@H]2C1)S(=O)(=O)c1cccc(CO)c1 (stereo partly drawn) | HIV-1 protease (Human immunodeficiency virus type 1 group M subtype B) | 4 nM
C=CCCCCOc1cccc(S(=O)(=O)N(CCCCC=C)C[C@@H](O)[C@H](Cc2ccccc2)NC(=O)O[C@@H]2CC3CCO[C@@H]3C2)c1 (stereo partly drawn) [Compound 225i] | HIV-1 protease (Human immunodeficiency virus type 1 group M subtype B) | 17 nM
CC(C)CN(C[C@@H](O)[C@H](Cc1ccccc1)NC(=O)OC1CO[C@H]2OCCC12)S(=O)(=O)c1cccc(/C=N/O)c1 (stereo partly drawn) | HIV-1 protease (Human immunodeficiency virus type 1 group M subtype B) | 2.4 nM
Cc1ccc(S(=O)(=O)N(CC(C)C)C[C@@H](O)[C@H](CC2CCN(C(=O)c3ccccc3)CC2)NC(=O)OC2CCCC23CCCO3)cc1 (stereo partly drawn) | HIV-1 protease (Human immunodeficiency virus type 1 group M subtype B) | 185 nM
Cc1ccc(S(=O)(=O)N(CC(C)C)C[C@@H](O)[C@H](Cc2ccccc2)NC(=O)OC2CO[C@H]3OCCC23)cc1CO (stereo partly drawn) | HIV-1 protease (Human immunodeficiency virus type 1 group M subtype B) | 3.1 nM
CC(C)(C)OC(=O)NN(C[C@@H](O)[C@H](Cc1ccccc1)NC(=O)O[C@H]1CO[C@H]2OCCC21)S(=O)(=O)c1ccc(F)c(N)c1 (stereo partly drawn) | HIV-1 protease (Human immunodeficiency virus type 1 group M subtype B) | 3.5 nM
O=C(N[C@@H](Cc1ccccc1)[C@H](O)CN1CCC/C=C\CCCCOc2ccccc2COC1=O)O[C@@H]1CC2CCO[C@@H]2C1 (stereo partly drawn) | HIV-1 protease (Human immunodeficiency virus type 1 group M subtype B) | 495 nM
CNCc1ccc(S(=O)(=O)N(CC(C)C)C[C@@H](O)[C@H](Cc2ccccc2)NC(=O)OC2CO[C@H]3OCCC23)cc1 (stereo partly drawn) | HIV-1 protease (Human immunodeficiency virus type 1 group M subtype B) | 3.5 nM
O=C1CC[C@H](CN(C[C@@H](O)[C@H](Cc2ccccc2)NC(=O)OC2CO[C@H]3OCC[C@@H]23)S(=O)(=O)c2ccc([N+](=O)[O-])cc2)N1 (stereo partly drawn) | HIV-1 protease (Human immunodeficiency virus type 1 group M subtype B) | 0.1 nM
COc1ccc(S(=O)(=O)N(C[C@@H](O)[C@H](Cc2ccccc2)NC(=O)O[C@@H]2CO[C@@H]3OCC[C@@H]32)C2CN(C)C2)cc1 | HIV-1 protease (Human immunodeficiency virus type 1 group M subtype B) | 31 nM
CC(C)(C)NC(=O)[C@@H]1C[C@@H]2CCCC[C@@H]2CN1C[C@@H](O)[C@H](Cc1ccccc1)NC(=O)OC1CC[C@@]2(CCCO2)C1 (stereo partly drawn) [Compound 145b] | HIV-1 protease (Human immunodeficiency virus type 1 group M subtype B) | > 2000 nM
O=C(N[C@@H](Cc1ccccc1)[C@H](O)CN1CCCCCCCCCOc2cccc(c2)S1(=O)=O)O[C@H]1CO[C@H]2OCCC21 (stereo partly drawn) [Compound 225b] | HIV-1 protease (Human immunodeficiency virus type 1 group M subtype B) | 7.8 nM
CC(C)CN(C[C@@H](O)[C@H](Cc1ccccc1)NC(=O)O[C@H]1CCOC1)S(=O)(=O)c1cncc([N+](=O)[O-])c1 | HIV-1 protease (Human immunodeficiency virus type 1 group M subtype B) | 7.1 nM
CC(C)CN(C[C@@H](O)[C@H](Cc1ccccc1)NC(=O)O[C@H]1CCOC1)S(=O)(=O)c1ccc(F)c(N)c1 | HIV-1 protease (Human immunodeficiency virus type 1 group M subtype B) | 4.6 nM
Cc1ccc(S(=O)(=O)N(C[C@@H](O)[C@H](Cc2ccccc2)NC(=O)OC2CO[C@H]3OCCC23)C2CCOC2)cc1CO (stereo partly drawn) | HIV-1 protease (Human immunodeficiency virus type 1 group M subtype B) | 2 nM
C=CCCCCN(C[C@@H](O)[C@H](Cc1ccccc1)NC(=O)O[C@@H]1CC2CCO[C@@H]2C1)S(=O)(=O)c1cccc(C(O)CC=C)c1 (stereo partly drawn) | HIV-1 protease (Human immunodeficiency virus type 1 group M subtype B) | 10 nM
COc1ccc(S(=O)(=O)N(C[C@@H](O)[C@H](Cc2ccccc2)NC(=O)O[C@H]2CO[C@H]3OCCC32)C2CN(C)C2)cc1 (stereo partly drawn) | HIV-1 protease (Human immunodeficiency virus type 1 group M subtype B) | 5.6 nM
CC(C)CN(C[C@@H](O)[C@H](Cc1ccccc1)NC(=O)OC1CC2CCO[C@@H]2C1)S(=O)(=O)c1cc(OC2CCCCO2)cc(OC2CCCCO2)c1 (stereo partly drawn) | HIV-1 protease (Human immunodeficiency virus type 1 group M subtype B) | 3.9 nM
O=C(N[C@@H](Cc1ccccc1)[C@H](O)CN1CCCCCCCCOc2cccc(c2)S1(=O)=O)O[C@H]1CO[C@H]2OCCC21 (stereo partly drawn) | HIV-1 protease (Human immunodeficiency virus type 1 group M subtype B) | 7.3 nM
CC(C)CN(C[C@@H](O)[C@H](Cc1ccccc1)NC(=O)OC1CO[C@H]2OCC[C@@H]12)C1CC(C)(C)NC1=O (stereo partly drawn) | HIV-1 protease (Human immunodeficiency virus type 1 group M subtype B) | 3.4 nM
CC(C)(C)OC(=O)NN(C[C@@H](O)[C@H](Cc1ccccc1)NC(=O)O[C@@H]1CC2CCO[C@@H]2C1)S(=O)(=O)c1ccc(F)c(N)c1 (stereo partly drawn) | HIV-1 protease (Human immunodeficiency virus type 1 group M subtype B) | 9.6 nM

Where do the numbers come from? From patent US20070082883A1.
